self-splicing fitness (ln) by entry:
assay: self-splicing fitness, log relative to wild type (ln ratio); higher = more splicing; Tetrahymena group I intron in knt gene, E. coli kanamycin selection, DiMSum; sequences stand for … in CUCUCU…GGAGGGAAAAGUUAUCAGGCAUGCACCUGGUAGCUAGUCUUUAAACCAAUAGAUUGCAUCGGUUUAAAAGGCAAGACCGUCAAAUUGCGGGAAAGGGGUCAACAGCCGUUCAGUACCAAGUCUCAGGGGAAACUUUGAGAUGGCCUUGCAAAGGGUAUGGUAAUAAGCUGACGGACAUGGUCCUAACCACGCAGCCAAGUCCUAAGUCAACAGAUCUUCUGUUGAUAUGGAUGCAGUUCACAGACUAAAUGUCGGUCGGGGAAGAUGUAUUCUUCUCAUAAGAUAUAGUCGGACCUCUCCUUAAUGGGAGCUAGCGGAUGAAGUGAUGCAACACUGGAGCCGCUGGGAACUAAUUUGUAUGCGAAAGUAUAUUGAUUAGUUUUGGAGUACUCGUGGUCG; conditions: 30 °C;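 note: selection with 25 µg/mL kanamycin versus none on LB agar overnight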
Just the number, please.

* UCCUAGCAAUAUUACGCGCA | -1.31
* CUGCAGCAAUAUUACGCAUA | -2.84
* CGUCAGCAAUAUUACGUCCU | -1.88
* AGACAGCAAUAUUACGACAG | -3.42
* GGGCAGCAAUAUUACGUCAG | -1.19
* GAUGAGCAAUAUUACGUAGA | -3.51
* CUUCAGCAAUAUUACGAUUC | -2.88
* GAGAAGCAAUAUUACGGUCU | -2.29

Returns the measured self-splicing fitness (ln) for the input sequence. Input: `CCCGAGCAAUAUUACGUUUC`
-3.44

Returns the measured self-splicing fitness (ln) for the input sequence. Input: `CGUGAGCAAUAUUACGCACA`
-1.32

Returns the measured self-splicing fitness (ln) for the input sequence. Input: `UGAAAGCAAUAUUACGAACU`
-0.526

Returns the measured self-splicing fitness (ln) for the input sequence. Input: `ACAAAGCAAUAUUACGGAGG`
-2.23

Returns the measured self-splicing fitness (ln) for the input sequence. Input: `GCAGAGCAAUAUUACGUAGG`
-2.17

Returns the measured self-splicing fitness (ln) for the input sequence. Input: `GGCGAGCAAUAUUACGUACG`
-2.43

Returns the measured self-splicing fitness (ln) for the input sequence. Input: `CCAUAGCAAUAUUACGGGGC`
-2.41
